The measured values listed here are drawn from patent US20170362276A1.

Measured Delta Antagonist IC 50 of individual entries
measurement_target: human delta opioid receptor (human, UniProt P41143 1-372)
Sequence (P41143 whole entry, stated change not applied): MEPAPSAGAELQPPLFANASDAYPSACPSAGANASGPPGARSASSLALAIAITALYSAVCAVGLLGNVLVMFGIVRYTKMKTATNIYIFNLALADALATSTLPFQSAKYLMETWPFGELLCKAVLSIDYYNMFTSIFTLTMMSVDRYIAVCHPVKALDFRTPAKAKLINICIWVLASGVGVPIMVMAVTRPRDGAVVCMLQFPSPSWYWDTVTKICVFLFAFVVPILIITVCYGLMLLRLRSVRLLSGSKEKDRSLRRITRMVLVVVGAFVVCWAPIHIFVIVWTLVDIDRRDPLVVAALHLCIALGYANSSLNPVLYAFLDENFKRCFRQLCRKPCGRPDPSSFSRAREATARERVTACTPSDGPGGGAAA
experiment: cell-based or functional assay
Positions of bridges follow the written chain, without caps; N, C: chain ends. Non-standard residues stand in square brackets, D forms with d. No end group written: not given here.
Reply with just the number (in nM).

stdin: Please give the measured Delta Antagonist IC 50 for this binder: Y[dK]WFD-NH2 (lactam 2-5; N-terminus assumed; SMILES NC(=O)[C@@H]1CC(=O)NCCCC[C@@H](NC(=O)[C@@H](N)Cc2ccc(O)cc2)C(=O)N[C@@H](Cc2c[nH]c3ccccc23)C(=O)N[C@@H](Cc2ccccc2)C(=O)N1) [Compound 5, Tyr-c[D-Lys-Trp-Phe-Asp]-NH2]
stdout: 557

stdin: GET /values?readout=Delta Antagonist IC 50&item= YPFF-NH2 [endomorphin-2 (Tyr-Pro-Phe-Phe-NH2)]
stdout: 30000

stdin: I'd like to know its Delta Antagonist IC 50. The binder in question is Y[dE]FFK-NH2 (lactam 2-5; N-terminus assumed; SMILES NC(=O)[C@@H]1CCCCNC(=O)CC[C@@H](NC(=O)[C@@H](N)Cc2ccc(O)cc2)C(=O)N[C@@H](Cc2ccccc2)C(=O)N[C@@H](Cc2ccccc2)C(=O)N1) [Compound 2, Tyr-c[D-Glu-Phe-Phe-Lys]-NH2]
stdout: 2750

stdin: Quick check: Delta Antagonist IC 50 of Y[dK]WFE-NH2 (lactam 2-5; N-terminus assumed; SMILES NC(=O)[C@@H]1CCC(=O)NCCCC[C@@H](NC(=O)[C@@H](N)Cc2ccc(O)cc2)C(=O)N[C@@H](Cc2c[nH]c3ccccc23)C(=O)N[C@@H](Cc2ccccc2)C(=O)N1) [Compound 1, Tyr-c[D-Lys-Trp-Phe-Glu]-NH2] ?
stdout: 105
